Each entry below lists one item and its recorded composite z-score value.
Target: Fibroblast growth factor 10 (Homo sapiens) (UniProt O15520)
Sequence (O15520 whole entry, looked up): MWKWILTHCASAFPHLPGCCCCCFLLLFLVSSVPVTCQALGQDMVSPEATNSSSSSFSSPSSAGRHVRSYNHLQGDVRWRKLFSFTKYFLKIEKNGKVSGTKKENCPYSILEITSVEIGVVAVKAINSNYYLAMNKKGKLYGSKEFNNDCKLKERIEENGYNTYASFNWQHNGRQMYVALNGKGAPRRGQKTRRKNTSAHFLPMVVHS
Assay: FGF10 binders on small-molecule microarrays, primary screen, biochemical, small-molecule microarray, 635 nm fluorescence (AID 1102)
Conditions: FGF10 binding, fluorescence 635 nm, higher = more signal

Answered examples (6):
{"COMPOUND": "O=C(NCc1ccccc1)[C@@]1(Cc2ccccc2)N=C(c2ccc(OCCCO)cc2)O[C@H]1c1ccccc1", "OBSERVED_VALUE": 0.366}
{"COMPOUND": "COC(=O)[C@@]1(Cc2ccc(F)cc2)[C@H]2c3cc(C(=O)N4CCCC4)n(Cc4ccc(C)o4)c3C[C@H]2CN1C(=O)c1ccccc1", "OBSERVED_VALUE": 1.08}
{"COMPOUND": "CN1C(=O)C2C=CC(C(O)c3ccc(-c4ccccc4)s3)N(N(c3ccccc3)c3ccccc3)C2C1=O (stereo not given)", "OBSERVED_VALUE": 0.186}
{"COMPOUND": "COc1ccc(C(=O)Nc2cccc(CN3C(=O)[C@]4(O[C@H](CCO)[C@@H]([Si](C)(C)c5ccc(OC)cc5)[C@@H]4C)c4ccccc43)c2)cc1", "OBSERVED_VALUE": 0.691}
{"COMPOUND": "COCCOC(=O)N1C(=O)[C@@]2(c3ccccc31)[C@H](c1ccccc1OCCO)N1[C@H](c3ccccc3)[C@H](c3ccccc3)OC(=O)[C@H]1[C@@H]2C(=O)Nc1nc2ccccc2s1", "OBSERVED_VALUE": 1.1}
{"COMPOUND": "COC(=O)[C@@]1(Cc2ccc(F)cc2)[C@H]2c3cc(C(=O)N4CCCC4)n(Cc4cc(C)n(C)n4)c3C[C@H]2CN1C(=O)c1ccccc1", "OBSERVED_VALUE": 0.533}

Param item: "C=CCNC(=O)[C@@H]1[C@H]2C(=O)O[C@H](c3ccccc3)[C@H](c3ccccc3)N2[C@H](c2ccccc2OCCO)[C@@]12C(=O)N(C(=O)OCCOC)c1ccc(C#CCNC(N)=O)cc12" ; param system: Fibroblast growth factor 10 (Homo sapiens) (UniProt O15520); output composite z-score: 0.738

Param item: "COCCCN1C(=O)[C@@]2(Cc3ccccc31)c1ccccc1C(=O)N(Cc1ccccc1C(F)(F)F)[C@H]2c1ccc(CO)cc1" ; param system: Fibroblast growth factor 10 (Homo sapiens) (UniProt O15520); output composite z-score: 0.94

Param item: "COc1ccc([C@H]2C[C@H]3C(Br)=C[C@@H]2C(=O)[C@]32CO2)cc1" ; param system: Fibroblast growth factor 10 (Homo sapiens) (UniProt O15520); output composite z-score: -0.105

Param item: CCC(CC)C(O)C1C=CC2C(=O)N(C)C(=O)C2N1Nc1ccccc1 (stereo not given) ; param system: Fibroblast growth factor 10 (Homo sapiens) (UniProt O15520); output composite z-score: 0.603

Param item: "C=C[C@H](COC(C)=O)N(C(=O)OC(C)(C)C)S(=O)(=O)c1ccc(Br)cc1" ; param system: Fibroblast growth factor 10 (Homo sapiens) (UniProt O15520); output composite z-score: 0.619

Param item: "C=C(CCCC)C(=O)CC[C@@H](OC(=O)c1cccnc1)c1ccc(CO)o1" ; param system: Fibroblast growth factor 10 (Homo sapiens) (UniProt O15520); output composite z-score: 1.21
